Test system: PANC1005
Assay: cells
Conditions: read-out: Aver IC50, PANC1005; PANC1005 (Pancreatic - Adenocarcinoma); MTS, 72 hours, 37 °C, 5% CO2, 384-well; n>2 independent studies (in duplicate)
pIC50: −log10 of the molar value. Numbered stars: 1 amine (or outer) side, 2 acyl side, 3 side chain; on linkers, the order of the positions; unused ones are H or OH. Square brackets hold non-standard residues; d marks the D form. Peptide text beside a SMILES is read from it. * marks the point of attachment. Heptanoyl(3-oxo-2,2,4S,6-Me) = CC(C)C[C@H](C)C(=O)C(C)(C)C(=O)*; NH((S)-1-NMe2-3-Me-but-2-yl) = CC(C)[C@@H](CN(C)C)N*; Ile(3R-OH) = CC[C@@](C)(O)[C@H](N)C(=O)O; dVal(3-OH) = CC(C)(O)[C@@H](N)C(=O)O; d(aIle) = CC[C@H](C)[C@@H](N)C(=O)O; Val(3-OH) = CC(C)(O)[C@H](N)C(=O)O; X1 = CCC(CC)=C(N[*:1])C(=O)[*:2]; NHCH2CH2NMe2 = CN(C)CCN*; ΔVal = CC(C)=C(N)C(=O)O
Task for the reader: assign each of the following molecules its reported pIC50.

Hi! Can you tell me pIC50 for each of these molecules?
1. CCC(CC)=C(NC(=O)CNC(=O)C(NC(=O)[C@@H](NC(=O)C(C)(C)C(=O)[C@@H](C)CC(C)C)[C@](C)(O)CC)=C(C)C)C(=O)N[C@@H](C(=O)N[C@@H](C(=O)N[C@@H](C(=O)N[C@H](C(=O)NC(C(=O)N[C@H](C)C(=O)NCCN(C)C)=C(C)C)C(C)(C)O)C(C)(C)O)[C@@H](C)CC)C(C)C [Compound 30] ({Heptanoyl(3-oxo-2,2,4S,6-Me)}-[Ile(3R-OH)][ΔVal]G[X1][dV][d(aIle)][dVal(3-OH)][Val(3-OH)][ΔVal][dA]-NHCH2CH2NMe2)
2. CC(=O)N[C@@H](C(=O)N[C@H](C(=O)NC(C(=O)N[C@H](CN(C)C)C(C)C)=C(C)C)C(C)C)C(C)C
3. CCC(CC)=C(NC(=O)CNC(=O)C(NC(=O)[C@@H](NC(=O)C(C)(C)C(=O)[C@@H](C)CC(C)C)[C@](C)(O)CC)=C(C)C)C(=O)N[C@@H](C(=O)NCCN(C)C)C(C)C
4. CC[C@H](C)[C@@H](NC(C)=O)C(=O)N[C@@H](C(=O)N[C@H](C(=O)NC(C(=O)N[C@H](C)C(=O)N[C@@H](C(=O)N[C@H](C(=O)NC(C(=O)N[C@H](CN(C)C)C(C)C)=C(C)C)C(C)C)C(C)C)=C(C)C)C(C)(C)O)C(C)(C)O [Compound 24] (Ac-[d(aIle)][dVal(3-OH)][Val(3-OH)][ΔVal][dA][dV]V[ΔVal]-{NH((S)-1-NMe2-3-Me-but-2-yl)})

Reply |
< 4.60
< 4.60
< 4.60
< 4.60

Taken from paper PMC8848768.
